# System: Caenorhabditis elegans
# experiment_description: C. elegans L1 larvae dose-response, 5 day visual viability score (Examples 2 and 7)
# Format: in vivo
# Parameters: key: Dead: only stiff L1s (no movement); Dead (L4): worms are dead, but at a later larval stage; majority of worms are L1 (based on size); majority of worms are L2 (based on size); majority of worms are L3 (based on size); majority of worms are L4 (based on size); AD: majority of worms are adult; #AD: 5 adult worms or less; B!: sterile (0-25 progeny); B: low broodsize (25-100 progeny); ˜B: moderate broodsize (100-250 progeny); <: reduced broodsize (250-500 progeny); OK: no effect (˜1000+ progeny)
# assay_conditions: 70 μM (procedure of Example 2); day 5; Table 3
# Experimental: Caenorhabditis elegans adults were grown on Nematode Growth Medium (NGM) until they produced eggs, then the adults were removed. The eggs were allowed to hatch, and the L1 larvae collected. […] The nematodes had cleared all control wells by day 4, and nematode viability was scored by visual examination under a 100× dissecting microscope on day 5. […] If several classes of worms exist in a well, then all classes are scored. If adults are present, then the brood score is also recorded. […]
readout_name: 5 Day Visual Score V1

Recorded results for 5 compounds are shown here.
                                   compound  result_value
0  COc1ccc(Oc2cc(NCc3ccc(C(F)(F)F)cc3)ncn2)cc1          Dead
1  FC(F)(F)c1ccc(CNc2cc(Oc3ccccc3Cl)ncn2)cc1          Dead
2   Fc1ccc(F)c(CNc2cc(Oc3cccc(Cl)c3)ncn2)c1          Dead
3  FC(F)(F)c1ccc(CNc2cc(Oc3cccc(Cl)c3)ncn2)cc1          Dead
4  CCC1CCCCN1c1cc(Oc2ccc(-c3ccccc3)cc2)ncn1 (centres unmarked)          Dead

Record lookup: for Caenorhabditis elegans, what 5 Day Visual Score V1 belongs to C#Cc1cccc(N(CC(=O)Nc2ccc(S(N)(=O)=O)cc2)Cc2cccs2)c1 ?
Dead

Find 5 Day Visual Score V1 (Caenorhabditis elegans) for the entry CCCCCCCCCCCCNc1cc(Oc2ccccc2OC)ncn1
Dead

Field: 5 Day Visual Score V1 (Caenorhabditis elegans). Entry: Clc1cccc(Oc2cc(NCc3ccccc3Cl)ncn2)c1
L1

What reported 5 Day Visual Score V1 corresponds to CN(Cc1ccccc1)c1cc(Oc2cccc(F)c2)ncn1 on Caenorhabditis elegans?
Dead

Item Fc1ccccc1Oc1cc(NCc2cccc(C(F)(F)F)c2)ncn1 with Caenorhabditis elegans - 5 Day Visual Score V1?
L1

Lab request: please report 5 Day Visual Score V1 under test system Caenorhabditis elegans for FC(F)(F)c1cccc(CNc2cc(Oc3ccc(-c4ccccc4)cc3)ncn2)c1
Dead

Hi! What's the reported 5 Day Visual Score V1 for Fc1ccc(Oc2cc(N3CCc4ccccc4C3)ncn2)cc1 on Caenorhabditis elegans?
L1

Provide the documented 5 Day Visual Score V1 with Caenorhabditis elegans as the system for Fc1ccc(Oc2cc(NCc3cc(F)cc(F)c3)ncn2)cc1
Dead

Item Fc1ccc(Oc2cc(NCc3cccc(C(F)(F)F)c3)ncn2)cc1 with Caenorhabditis elegans - 5 Day Visual Score V1?
L1

Missing value: 5 Day Visual Score V1, Caenorhabditis elegans, entry NS(=O)(=O)c1ccc(NC(=O)CN2CCCC(NC(=O)c3cc4ccccc4o3)C2)cc1 (centres unmarked) . Fill in?
Dead

Tell me reported 5 Day Visual Score V1 for CCN(C)c1cc(Oc2ccc3ccccc3c2)ncn1 , tested with Caenorhabditis elegans.
L1

Give 5 Day Visual Score V1 (Caenorhabditis elegans) of the following compound: FC(F)(F)c1cccc(CNc2cc(Oc3cccc(Cl)c3)ncn2)c1
Dead

Tell me reported 5 Day Visual Score V1 for CC(C)(C)OC(=O)N1CCN(c2cc(Oc3ccc(F)cc3)ncn2)CC1 , tested with Caenorhabditis elegans.
L4
